Source: ChEMBL document CHEMBL3997771

Organism: Ovis aries
Test: Binding affinity to lamb brain tubulin after 15 mins by fluorimetric titration method
property.name: Kapp (×10⁴ /M)

chemical.smiles | value.units | value.reported
CCCCCCCCCC(=O)N[C@H]1CCc2cc(OC)c(OC)c(OC)c2-c2ccc(OC)c(=O)cc21 | ×10⁴ /M | 17.9
CCCCCCCCCCCC(=O)N[C@H]1CCc2cc(OC)c(OC)c(OC)c2-c2ccc(OC)c(=O)cc21 | ×10⁴ /M | 19
CCCCCCCCCCC(=O)N[C@H]1CCc2cc(OC)c(OC)c(OC)c2-c2ccc(OC)c(=O)cc21 | ×10⁴ /M | 18.4
CCCCCCCC(=O)N[C@H]1CCc2cc(OC)c(OC)c(OC)c2-c2ccc(OC)c(=O)cc21 | ×10⁴ /M | 5.2
CCCCCC(=O)N[C@H]1CCc2cc(OC)c(OC)c(OC)c2-c2ccc(OC)c(=O)cc21 | ×10⁴ /M | 6.4

----------
System: A549
Experiment: Cytotoxicity against human A549 cells assessed as growth inhibition after 72 hrs by MTT assay
Type: functional, cell-based
Conditions: A549, 72 h

chemical.smiles | assayed.system | IC50
COc1cc2c(c(OC)c1OC)-c1ccc(OC)c(=O)cc1[C@@H](NC(C)=O)CC2 | A549 | 14 nM
CCCCCC(=O)N[C@H]1CCc2cc(OC)c(OC)c(OC)c2-c2ccc(OC)c(=O)cc21 | A549 | 18 nM
CCCCCCCCCC(=O)N[C@H]1CCc2cc(OC)c(OC)c(OC)c2-c2ccc(OC)c(=O)cc21 | A549 | 25 nM
CCCCCCCCCCC(=O)N[C@H]1CCc2cc(OC)c(OC)c(OC)c2-c2ccc(OC)c(=O)cc21 | A549 | 62 nM
CCCCCCCCCCCC(=O)N[C@H]1CCc2cc(OC)c(OC)c(OC)c2-c2ccc(OC)c(=O)cc21 | A549 | 71.9 nM
CCCCCCCC(=O)N[C@H]1CCc2cc(OC)c(OC)c(OC)c2-c2ccc(OC)c(=O)cc21 | A549 | 133 nM

----------
Tested on: HT-29
Test: Cytotoxicity against human HT-29 cells assessed as growth inhibition after 72 hrs by MTT assay
Format: functional, cell-based
Conditions: HT-29, 72 h
Here, each record is paired with measured IC50 data.

chemical.smiles | IC50
CCCCCCCCCCCCCC(=O)N[C@H]1CCc2cc(OC)c(OC)c(OC)c2-c2ccc(OC)c(=O)cc21 | 36 nM
CCCCCCCCCCCC(=O)N[C@H]1CCc2cc(OC)c(OC)c(OC)c2-c2ccc(OC)c(=O)cc21 | 0.27 nM
CCCCCC(=O)N[C@H]1CCc2cc(OC)c(OC)c(OC)c2-c2ccc(OC)c(=O)cc21 | 3.37 nM
CCCCCCCCCC(=O)N[C@H]1CCc2cc(OC)c(OC)c(OC)c2-c2ccc(OC)c(=O)cc21 | 0.143 nM
CCCCCCCC(=O)N[C@H]1CCc2cc(OC)c(OC)c(OC)c2-c2ccc(OC)c(=O)cc21 | 1.69 nM
CCCCCCCCCCCCCCCCCC(=O)N[C@H]1CCc2cc(OC)c(OC)c(OC)c2-c2ccc(OC)c(=O)cc21 | 1010 nM
CCCCCCCCCCCCC(=O)N[C@H]1CCc2cc(OC)c(OC)c(OC)c2-c2ccc(OC)c(=O)cc21 | 7 nM
CCCC(=O)N[C@H]1CCc2cc(OC)c(OC)c(OC)c2-c2ccc(OC)c(=O)cc21 | 10 nM
CCCCCCCCCCCCCCCC(=O)N[C@H]1CCc2cc(OC)c(OC)c(OC)c2-c2ccc(OC)c(=O)cc21 | 184 nM
CCCCCCCCCCC(=O)N[C@H]1CCc2cc(OC)c(OC)c(OC)c2-c2ccc(OC)c(=O)cc21 | 0.041 nM
